molecular target: NMDA receptor (Rattus norvegicus); construct: endogenous in cells; assay: Microelectrophoretic application of NMDA to spinal neurones in vivo; conditions: i.v., responses of single rat spinal neurones
quantity_name: Microelectrophoretic NMDA ID50 (mg/kg)
Numbers only, in mg/kg.

| compound | Microelectrophoretic NMDA ID50 / mg/kg |
| --- | --- |
| O=c1[nH]nc(O)c2c1cc1cc(F)ccc1[n+]2[O-] [Mrz 2/516] | 1.8 |

Please give the measured Microelectrophoretic NMDA ID50 for this compound: O=c1[nH]nc(O)c2c1cc1cc(Cl)ccc1[n+]2[O-] [Mrz 2/502]
1.2

###

Target: NMDA receptor (Rattus norvegicus)
Construct: endogenous in cells
Assay: Patch clamp, inward currents to NMDA in cultured superior colliculus neurones
Type: cell-based
Conditions: NMDA 200 μM, glycine 1 μM, plateau (steady-state) currents; read-out: Plateau NMDA IC50
Experimental: Cells were mechanically dissociated in 0.05% DNAase / 0.3% ovomucoid (Sigma) following a 15 minute pre-incubation with 0.66% trypsin / 0.1% DNAase (Sigma). […] This effect was mediated at the glycineB site as evidenced by the parallel shift in the concentration-response curves in the presence of increasing glycine concentrations. Thus the Kbs of Mrz 2/502 as assessed according to the Cheng-Prusoff relationship were similar in glycine 1, 3 and 10 μM (80, 124 and 118 nM respectively). […]
quantity_name: IC50 (nM)
One number for each entry, in nM.

| compound | meas_value |
| --- | --- |
| O=c1[nH]nc(O)c2c1cc1cc(Br)ccc1[n+]2[O-] [Mrz 2/570] | 100 |
| O=c1[nH]nc(O)c2c1cc1cc(Br)ccc1[n+]2[O-] [Mrz 2/514] | 200 |
| O=c1[nH]nc(O)c2c1cc1cc(F)ccc1[n+]2[O-] [Mrz 2/516] | 1600 |
| O=c1[nH][nH]c(=O)c2nc3ccc(Cl)cc3cc12 [Mrz 2/501] | 700 |
| O=c1[nH]nc(O)c2c1cc1cc(F)ccc1[n+]2[O-] [Mrz 2/571] | 1000 |

Go through the items and report each one's IC50.
1. O=c1[nH]nc(O)c2c1cc1cc(Cl)ccc1[n+]2[O-] [Mrz 2/576]
2. O=c1[nH][nH]c(=O)c2nc3ccc(Br)cc3cc12 [Mrz 2/503]

[500, 600]

###

Test system: AMPA receptor
Assay: Patch clamp, inward currents to AMPA in cultured superior colliculus neurones
Format: cell-based, rat
Conditions: AMPA 100 μM, plateau currents; listed as 514; read-out: Plateau AMPA IC50
Protocol: Cells were mechanically dissociated in 0.05% DNAase / 0.3% ovomucoid (Sigma) following a 15 minute pre-incubation with 0.66% trypsin / 0.1% DNAase (Sigma). The dissociated cells were then centrifuged at 18G for 10 minutes, resuspended in minimum essential medium (Gibco) and plated at a density of 200,000 cells cm onto poly-L-lysine (Sigma)-precoated plastic petri dishes (Falcon). […]
quantity_name: pIC50
One number for each entry, as −log10 of the molar value.

Can you share its pIC50? I mean this molecule: O=c1[nH]nc(O)c2c1cc1cc(Br)ccc1[n+]2[O-] [Mrz 2/514]
3.51

###

Task for the reader: assign each of the following compounds its reported Microelectrophoretic AMPA ID50.
Tested on: AMPA
Assay: Microelectrophoretic application of AMPA to spinal neurones in vivo
Conditions: i.v., responses of single rat spinal neurones
Procedure: The ability of these glycineB antagonists to act as NMDA receptor antagonists in vivo was assessed using i.v. administration against responses of single neurones in the rat spinal cord to microelectrophoretic application of AMPA and NMDA.

| compound | quantity_name | meas_value |
| --- | --- | --- |
| O=c1[nH][nH]c(=O)c2nc3ccc(F)cc3cc12 [Mrz 2/519] | Microelectrophoretic AMPA ID50 | > 16.0 mg/kg |
| O=c1[nH]nc(O)c2c1cc1cc(Br)ccc1[n+]2[O-] | Microelectrophoretic AMPA ID50 | > 16.0 mg/kg |
| O=c1[nH][nH]c(=O)c2nc3ccc(Br)cc3cc12 | Microelectrophoretic AMPA ID50 | > 16.0 mg/kg |
| O=c1[nH]nc(O)c2c1cc1ccccc1[n+]2[O-] | Microelectrophoretic AMPA ID50 | > 32.0 mg/kg |
| O=c1[nH][nH]c(=O)c2nc3ccc(Cl)cc3cc12 [Mrz 2/501] | Microelectrophoretic AMPA ID50 | > 16.0 mg/kg |
| O=c1[nH][nH]c(=O)c2nc3ccc(Cl)cc3cc12 [Mrz 2/569] | Microelectrophoretic AMPA ID50 | > 16.0 mg/kg |

Form field: Microelectrophoretic AMPA ID50 recorded for O=c1[nH][nH]c(=O)c2nc3ccc(F)cc3cc12 [Mrz 2/572] with AMPA (enter value)
> 16.0 mg/kg
